TARGET OR SYSTEM: UniProtKB P04176
Sequence (whole entry): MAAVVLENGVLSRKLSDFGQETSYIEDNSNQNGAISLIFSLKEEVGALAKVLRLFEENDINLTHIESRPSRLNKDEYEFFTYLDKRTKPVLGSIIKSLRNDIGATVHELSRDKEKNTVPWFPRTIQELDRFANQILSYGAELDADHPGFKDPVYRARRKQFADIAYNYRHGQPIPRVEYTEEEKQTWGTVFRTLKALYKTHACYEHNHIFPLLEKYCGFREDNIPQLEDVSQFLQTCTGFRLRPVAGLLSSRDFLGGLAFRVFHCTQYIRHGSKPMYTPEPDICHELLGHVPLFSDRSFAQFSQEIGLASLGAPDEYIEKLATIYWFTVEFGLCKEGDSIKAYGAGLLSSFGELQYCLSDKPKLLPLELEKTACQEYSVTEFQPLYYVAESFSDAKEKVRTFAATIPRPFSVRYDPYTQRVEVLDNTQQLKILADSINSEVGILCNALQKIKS
TEST DETAILS: Tested in isolated enzyme assay for its cofactor activity against phenylalanine hydroxylase (isolated from rat liver) expressed as relative velocity
Label 1.0 when Relative velocity is at or above 20%; otherwise label 0.0.

Does the reported Relative velocity for COCCOCC1CNc2nc(N)nc(O)c2N1 (configuration not stated) fall at or above the 20% mark?
1.0

Relative velocity >= 20% for CCCOCC1CNc2nc(N)nc(O)c2N1 (configuration not stated) ?
1.0

Form field: Relative velocity at least 20%? Entry: CC(C)OCC1CNc2nc(N)nc(O)c2N1 (configuration not stated)
0.0

Hi team, for CCCCOCC1CNc2nc(N)nc(O)c2N1 (configuration not stated) , is the recorded Relative velocity at or above 20%?
1.0

Determine whether this compound has Relative velocity no lower than 20%: CC(C)(C)OCC1CNc2nc(N)nc(O)c2N1 (configuration not stated)
0.0

In plain terms: is recorded Relative velocity at least 20% for CCCCCCCCOCC1CNc2nc(N)nc(O)c2N1 (configuration not stated) ?
0.0

Does the compound CC1(C)CNc2nc(N)nc(O)c2N1 have recorded Relative velocity that is 20% or more?
1.0

Data credit: ChEMBL document CHEMBL1123591
